Please go through the items and note down their viability, T/C.
Tested on: 695427-040-R-J1-PDC complex spheroid viability
MEASUREMENT PROTOCOL: Anticancer human tumor 695427-040-R-J1-PDC patient-derived colon adenocarcinoma cell line growth inhibition [RAS]
CONDITION SUMMARY: second compound 0.00949 µM; first compound 0.0316 µM; active compounds read low

Problem: For 695427-040-R-J1-PDC complex spheroid viability, provide viability, T/C of Nc1ccn(C2OC(CO)C(O)C2(F)F)c(=O)n1 (centres undefined) + CCn1c(-c2cccnc2C(C)OC)c2c3cc(ccc31)N1CCOC(CC(NC(=O)C(C(C)C)N(C)C(=O)C3(F)CCN(C(=O)C#CC(C)(C)N(C)C)CC3)C(=O)N3CCCC(N3)C(=O)OCC(C)(C)C2)C1 please.
Solution: 87.2%

Problem: Same lookup for C=CC(=O)N1CCN(c2nc(OCC3CCCN3C)nc3c(F)c(-c4nc(N)cc(C)c4C(F)(F)F)c(Cl)cc23)C(C)C1 (centres undefined) + CCn1c(-c2cccnc2C(C)OC)c2c3cc(ccc31)N1CCOC(CC(NC(=O)C(C(C)C)N(C)C(=O)C3(F)CCN(C(=O)C#CC(C)(C)N(C)C)CC3)C(=O)N3CCCC(N3)C(=O)OCC(C)(C)C2)C1 , please.
Solution: 85.1%

Problem: Same lookup for Cc1nc(N2CCC3(CC2)COC(C)C3N)c(CO)nc1Sc1ccnc(N)c1Cl (centres undefined) + CCn1c(-c2cccnc2C(C)OC)c2c3cc(ccc31)N1CCOC(CC(NC(=O)C(C(C)C)N(C)C(=O)C3(F)CCN(C(=O)C#CC(C)(C)N(C)C)CC3)C(=O)N3CCCC(N3)C(=O)OCC(C)(C)C2)C1 , please.
Solution: 104%

Problem: Same lookup for CC(C)NCC(C(=O)N1CCN(c2ncnc3c2C(C)CC3O)CC1)c1ccc(Cl)cc1 (centres undefined) + CCn1c(-c2cc(N3CCN(C)CC3)cnc2C(C)OC)c2c3cc(ccc31)-c1csc(n1)CC(NC(=O)C1CC1C)C(=O)N1CCCC(N1)C(=O)OCC(C)(C)C2 , please.
Solution: 74.4%

====

System: 695427-040-R-J1-PDC complex spheroid viability
MEASUREMENT PROTOCOL: Anticancer human tumor 695427-040-R-J1-PDC cell line growth inhibition [RAS];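 note: viability read after seven days of drug exposure; 100% = DMSO vehicle control viability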
CONDITION SUMMARY: second compound 1 µM; first compound 0.3 µM; active compounds read low
Please go through the items and note down their viability, T/C.
Kindly answer with a numeric value in %, unit omitted.

Problem: Quick one: viability, T/C for CCc1c2c(nc3ccc(O)cc13)-c1cc3c(c(=O)n1C2)COC(=O)[C@]3(O)CC + C#Cc1c(F)ccc2cc(O)cc(-c3ncc4c(N5CC6CCC(C5)N6)nc(OCC56CCCN5CC(F)C6)nc4c3F)c12 ?
Solution: 27.2

Problem: Same lookup for CC1(C)CCC(Nc2ncc(C(F)(F)F)c(-c3c[nH]c4c(P(C)(C)=O)c(C#N)ccc34)n2)CN1 (centres undefined) + C=CC(=O)N1CCN(c2nc(OCC3CCCN3C)nc3c(F)c(-c4nc(N)cc(C)c4C(F)(F)F)c(Cl)cc23)C(C)C1 , please.
Solution: 79.2

Problem: Same lookup for CC1(C)CCC(Nc2ncc(C(F)(F)F)c(-c3c[nH]c4c(P(C)(C)=O)c(C#N)ccc34)n2)CN1 (centres undefined) + C#Cc1c(F)ccc2cc(O)cc(-c3ncc4c(N5CC6CCC(C5)N6)nc(OCC56CCCN5CC(F)C6)nc4c3F)c12 , please.
Solution: 57.8

Problem: Same lookup for CCc1c2c(nc3ccc(O)cc13)-c1cc3c(c(=O)n1C2)COC(=O)[C@]3(O)CC + C=CC(=O)N1CCN(c2nc(OCC3CCCN3C)nc3c(F)c(-c4nc(N)cc(C)c4C(F)(F)F)c(Cl)cc23)C(C)C1 , please.
Solution: 34.9
